// provenance: the NIST ThermoML archive (doi:10.1021/je200213h)

conditions: 283.15 K; 101.33 kPa; Liquid; Capillary tube (Ostwald / Ubbelohde) method
OUTCOME MEASURE: kinematic viscosity (m2/s)
Report only the number, with the unit m2/s understood.

Consider the worked cases shown below.
(Q) Would you mind telling me what kinematic viscosity value was observed for CC(C)(C)Cl [2-chloro-2-methylpropane] ?
(A) 6.99e-07

(Q) Would you mind telling me what kinematic viscosity value was observed for CCCCCl [1-chlorobutane] ?
(A) 5.56e-07

(Q) Would you mind telling me what kinematic viscosity value was observed for CC(C)CCl [1-chloro-2-methylpropane] ?
(A) 5.8e-07

(Q) Would you mind telling me what kinematic viscosity value was observed for CCC(C)Cl (stereo not drawn) [2-chlorobutane] ?
(A) 5.24e-07

(Q) Would you mind telling me what kinematic viscosity value was observed for CCC(C)CC [3-methylpentane] ?
(A) 4.93e-07

Next:
(Q) Would you mind telling me what kinematic viscosity value was observed for CCCCCCC [heptane] ?
(A) 6.7e-07

(Q) Would you mind telling me what kinematic viscosity value was observed for CCCCCC [hexane] ?
(A) 5.12e-07

(Q) Would you mind telling me what kinematic viscosity value was observed for CCC(C)(C)C [2,2-dimethylbutane] ?
(A) 6.23e-07
